B1: GLTSCR2 (parent)
chain: FQRRNMIEPRERAKFKRKYKVKLV

Variants of: B1
Test: protein stability index of a GFP-peptide fusion (GPS, HEK-293T) (PSI 1-6); higher = more stable;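 note: lentivirally expressed fusions sorted by FACS into six bins by GFP to DsRed ratio, PSI derived from sequencing read proportions per bin multiplied by bin number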
Details: c terminus: a fixed tail appended
Metric name: protein stability index
Please give only the number in your answer, with no unit.

**Query** Which value of protein stability index has been reported for I7Q in the records?
**Result** 2.24

**Query** // repeat for K20G and report
**Result** 2.22

**Query** And for R10D ?
**Result** 2.58

**Query** // repeat for V21H and report
**Result** 2.79

**Query** Also need Y19A , thanks.
**Result** 2.46

**Query** Again, but for N5Q
**Result** 2.36

**Query** What would you report for K16V ?
**Result** 1.86

**Query** Now give it for Q2R too.
**Result** 2.62

**Query** Follow-up entry: P9I
**Result** 2.4

**Query** Same for R17A
**Result** 2.33

**Query** Okay, and A13G ?
**Result** 2.08

**Query** Moving on to the next variant: L23F
**Result** 1.71

**Query** Proceed to K14H
**Result** 2.03

**Query** // same read-out, input: K14T
**Result** 2.33

**Query** Thanks! And F1W ?
**Result** 2.41

**Query** Moving on to the next variant: R17Y
**Result** 1.65

**Query** Entry Q2H please
**Result** 2.21

**Query** Can you handle I7W next?
**Result** 1.9

**Query** Next: F1H
**Result** 2.69

**Query** Input R3A
**Result** 2.8

**Query** Query E8D next
**Result** 2.13

**Query** And E8R ?
**Result** 1.83

**Query** Queued: Y19I
**Result** 2.54

**Query** Next record, please: K22T
**Result** 1.89

**Query** Proceed to E8S
**Result** 2.04

**Query** One more variant: K20P
**Result** 1.95

**Query** // same read-out, input: E8K
**Result** 2.35

**Query** Field entry: N5I
**Result** 2.36

**Query** And then N5R , what is it?
**Result** 2.56

**Query** For R4I then?
**Result** 2.14

**Query** Follow-up item: V21E
**Result** 2.46

**Query** Try this variant too: I7N
**Result** 2.64

**Query** Field entry: F15K
**Result** 3.05

**Query** Same for K18W
**Result** 2.3

**Query** What do you get for E11H ?
**Result** 2.18

**Query** Try this variant next: R12K
**Result** 2.41

**Query** Query F15R next
**Result** 3.73

**Query** Also K18D ?
**Result** 2.64

**Query** Next variant up: R17Q
**Result** 2.07

**Query** And for L23Y ?
**Result** 2.46

**Query** Moving on to K22A
**Result** 1.93

**Query** Next variant up: E11A
**Result** 2.54

**Query** // repeat for R17I and report
**Result** 2.32

**Query** Same question, K22M this time
**Result** 2.37

**Query** Queued: R12V
**Result** 1.5

**Query** Please do the same for K18F as well.
**Result** 1.61
